TEST_SYSTEM: Telomerase reverse transcriptase (Homo sapiens, UniProt O14746)
Sequence (O14746 whole entry): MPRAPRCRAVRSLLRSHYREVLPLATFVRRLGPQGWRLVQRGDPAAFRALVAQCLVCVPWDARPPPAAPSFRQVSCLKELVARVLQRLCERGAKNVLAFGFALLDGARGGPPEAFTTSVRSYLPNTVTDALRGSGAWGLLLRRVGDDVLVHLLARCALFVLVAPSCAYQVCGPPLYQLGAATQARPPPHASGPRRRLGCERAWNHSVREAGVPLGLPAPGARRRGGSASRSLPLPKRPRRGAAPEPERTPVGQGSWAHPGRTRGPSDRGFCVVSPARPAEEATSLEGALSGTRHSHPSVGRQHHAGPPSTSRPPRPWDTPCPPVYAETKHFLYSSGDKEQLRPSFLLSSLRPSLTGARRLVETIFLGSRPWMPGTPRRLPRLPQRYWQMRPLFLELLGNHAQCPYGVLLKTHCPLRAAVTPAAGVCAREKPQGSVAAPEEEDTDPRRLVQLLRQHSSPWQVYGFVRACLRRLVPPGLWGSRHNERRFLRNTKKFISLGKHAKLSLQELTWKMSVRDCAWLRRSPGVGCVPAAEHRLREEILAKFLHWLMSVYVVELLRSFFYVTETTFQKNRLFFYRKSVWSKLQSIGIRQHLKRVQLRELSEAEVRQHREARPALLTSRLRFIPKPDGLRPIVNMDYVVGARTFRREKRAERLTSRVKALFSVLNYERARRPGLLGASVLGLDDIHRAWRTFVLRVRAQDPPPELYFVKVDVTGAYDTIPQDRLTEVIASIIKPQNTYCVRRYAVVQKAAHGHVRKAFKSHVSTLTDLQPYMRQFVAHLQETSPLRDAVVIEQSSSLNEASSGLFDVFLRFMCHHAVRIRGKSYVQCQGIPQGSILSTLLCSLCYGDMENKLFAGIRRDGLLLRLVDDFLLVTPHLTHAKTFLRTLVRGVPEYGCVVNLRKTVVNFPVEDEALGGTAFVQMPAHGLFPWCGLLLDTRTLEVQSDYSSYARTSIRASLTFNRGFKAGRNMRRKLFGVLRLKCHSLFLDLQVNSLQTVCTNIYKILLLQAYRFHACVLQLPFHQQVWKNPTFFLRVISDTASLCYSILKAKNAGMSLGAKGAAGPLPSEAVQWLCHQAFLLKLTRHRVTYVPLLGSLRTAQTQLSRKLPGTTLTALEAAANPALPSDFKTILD
ASSAY_PROTOCOL: Ability to inhibit human telomerase in a modified cell-free TRAP assay using extracts from A2780 cell line
MEASUREMENT_NAME: IC50 (µM)
The figure you give is taken to be in µM; do not add the unit.

{"MOLECULE": "CCN(CC)CCC(=O)Nc1ccc2cc3ccc(NC(=O)CCN(CC)CC)cc3nc2c1", "IC50 (µM)": 5.8}

Look at this molecule and give its reported IC50. O=C(CCN1CCCCC1)Nc1ccc2cc3ccc(NC(=O)CCN4CCCCC4)cc3nc2c1
2.8

Look at this molecule and give its reported IC50. O=C(CCN1CCCC1)Nc1ccc2cc3ccc(NC(=O)CCN4CCCC4)cc3nc2c1
5.2

Look at this molecule and give its reported IC50. CCC1CCCCN1CCC(=O)Nc1ccc2cc3ccc(NC(=O)CCN4CCCCC4CC)cc3nc2c1 (configuration not stated)
2.7

Look at this molecule and give its reported IC50. CC1CCCCN1CCC(=O)Nc1ccc2cc3ccc(NC(=O)CCN4CCCCC4C)cc3nc2c1 (configuration not stated)
2.6

Look at this molecule and give its reported IC50. O=C(CCN1CCC(O)CC1)Nc1ccc2cc3ccc(NC(=O)CCN4CCC(O)CC4)cc3nc2c1
8

###

System: SK-OV-3
ASSAY_PROTOCOL: In vitro cytotoxicity against human ovarian carcinoma cell line SKOV-3 using sulforhodamine B (SRB) assay
Type: functional, cell-based
Here the recorded pIC50 is given for each entry.
Scale note: pIC50 = -log10(concentration in M).

{"COMPOUND": "CCN(CC)CCC(=O)Nc1ccc2cc3ccc(NC(=O)CCN(CC)CC)cc3nc2c1", "pIC50": 5.65}
{"COMPOUND": "O=C(CCN1CCCCC1CO)Nc1ccc2cc3ccc(NC(=O)CCN4CCCCC4CO)cc3nc2c1 (stereo unspecified)", "pIC50": 5.15}
{"COMPOUND": "CCC1CCCCN1CCC(=O)Nc1ccc2cc3ccc(NC(=O)CCN4CCCCC4CC)cc3nc2c1 (stereo unspecified)", "pIC50": 5.41}
{"COMPOUND": "CC1CCN(CCC(=O)Nc2ccc3cc4ccc(NC(=O)CCN5CCC(C)CC5)cc4nc3c2)CC1", "pIC50": 5.62}
{"COMPOUND": "CN(C)CCC(=O)Nc1ccc2cc3ccc(NC(=O)CCN(C)C)cc3nc2c1", "pIC50": 5.60}
{"COMPOUND": "CC1(C)CC2CC(C)(CN2CCC(=O)Nc2ccc3cc4ccc(NC(=O)CCN5CC6(C)CC5CC(C)(C)C6)cc4nc3c2)C1", "pIC50": 5.66}
{"COMPOUND": "O=C(CCN1CCOCC1)Nc1ccc2cc3ccc(NC(=O)CCN4CCOCC4)cc3nc2c1", "pIC50": 4.89}
{"COMPOUND": "O=C(CCN1CCCCC1CCO)Nc1ccc2cc3ccc(NC(=O)CCN4CCCCC4CCO)cc3nc2c1 (stereo unspecified)", "pIC50": 4.98}
{"COMPOUND": "CC1CCCN(CCC(=O)Nc2ccc3cc4ccc(NC(=O)CCN5CCCC(C)C5)cc4nc3c2)C1 (stereo unspecified)", "pIC50": 5.55}
{"COMPOUND": "O=C(CCN1CCCCCCC1)Nc1ccc2cc3ccc(NC(=O)CCN4CCCCCCC4)cc3nc2c1", "pIC50": 5.64}

Shifting focus to the compound that follows.
Look at this compound and give its reported pIC50. O=C(CCN1CCC(Cc2ccccc2)CC1)Nc1ccc2cc3ccc(NC(=O)CCN4CCC(Cc5ccccc5)CC4)cc3nc2c1
6.06
